molecular target: Recombinant human c-Kit (Homo sapiens (Human), UniProt P10721); assay: c-KIT kinase assay (ADP-Glo); settings: Table 3, kinase selectivity
Sequence (P10721 26-976): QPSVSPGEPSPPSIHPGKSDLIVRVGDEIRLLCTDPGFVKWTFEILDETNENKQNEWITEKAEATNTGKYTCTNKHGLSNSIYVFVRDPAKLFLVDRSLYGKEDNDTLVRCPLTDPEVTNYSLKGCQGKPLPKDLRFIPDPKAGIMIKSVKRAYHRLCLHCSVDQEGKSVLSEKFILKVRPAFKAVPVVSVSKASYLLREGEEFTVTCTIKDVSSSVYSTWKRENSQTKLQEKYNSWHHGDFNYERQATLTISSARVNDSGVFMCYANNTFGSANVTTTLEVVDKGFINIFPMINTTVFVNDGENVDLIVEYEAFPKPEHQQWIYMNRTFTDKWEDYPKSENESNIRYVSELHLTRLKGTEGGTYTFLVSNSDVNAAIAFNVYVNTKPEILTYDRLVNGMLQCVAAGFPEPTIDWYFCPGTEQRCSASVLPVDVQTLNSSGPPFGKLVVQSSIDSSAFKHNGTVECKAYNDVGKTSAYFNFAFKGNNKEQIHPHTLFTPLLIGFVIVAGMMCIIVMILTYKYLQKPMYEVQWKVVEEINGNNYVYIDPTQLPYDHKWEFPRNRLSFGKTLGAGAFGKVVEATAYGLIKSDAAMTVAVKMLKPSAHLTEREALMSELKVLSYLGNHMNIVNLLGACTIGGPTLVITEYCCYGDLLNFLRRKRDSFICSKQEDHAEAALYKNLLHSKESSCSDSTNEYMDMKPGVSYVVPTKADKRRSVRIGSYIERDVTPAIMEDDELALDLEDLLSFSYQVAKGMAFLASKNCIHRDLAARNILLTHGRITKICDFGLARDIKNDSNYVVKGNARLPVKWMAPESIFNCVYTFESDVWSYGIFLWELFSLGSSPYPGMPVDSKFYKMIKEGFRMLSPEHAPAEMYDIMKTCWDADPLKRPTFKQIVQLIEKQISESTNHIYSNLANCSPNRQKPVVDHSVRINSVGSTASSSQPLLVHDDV
endpointLabel: IC50 (µM)
Supply the numeric figure in µM, leaving out any unit text.

Cc1ccc(O)cc1-c1ccc2nc(NC(=O)[C@@H]3C[C@@H]3F)sc2c1
1.34

Here is another compound to look at.
# IC50 lookup, item Cc1c(O)cccc1-c1ccc2nc(NC(=O)[C@@H]3C[C@@H]3F)sc2c1
1.02

---

assay: in vivo; conditions: male, ICR, mouse, plasma, po, 5 mg/kg
endpointLabel: AUC(0-inf) (ng·h/mL)
Supply the numeric figure in ng·h/mL, leaving out any unit text.

Completed entries (count: 2):
Cc1ccncc1-c1ccc2nc(NC(=O)[C@@H]3C[C@@H]3F)sc2c1
11400
Cc1ccncc1-c1ccc2sc(NC(=O)[C@@H]3C[C@@H]3F)nc2c1
4860

# AUC(0-inf) lookup, item Cc1ccncc1-c1ccc2nc(NC(=O)C3CC3)sc2c1
8480

Where do the numbers come from? From patent US10669246B2.
